# TARGET: T1, Human PDGF-BB (human, UniProt P01127 82-190)
# T1 construct: Dimer of two B chains; also called hPDGF-BB; huPDGF-BB
# T1 sequence (P01127 82-190 limits assumed): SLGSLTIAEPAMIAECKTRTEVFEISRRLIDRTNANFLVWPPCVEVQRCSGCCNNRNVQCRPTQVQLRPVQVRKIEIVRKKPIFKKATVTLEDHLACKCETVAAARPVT
# PROTOCOL_DETAILS: competition ELISA: antibody pre-incubated with hPDGF-BB-biotin, binding to coated hPDGF-Rβ-Fc
# Description: Plates were then washed four times with wash buffer (TBS, 0.05% Tween-20) and blocked with Superblock blocking buffer (Thermo Scientific, cat#37535). […] The reaction was stopped with 2N sulfuric acid (VWR, cat# BDH3500-1) and the absorbance was read at 450 nm-570 nm. […] Data was analyzed using Softmax Pro 4.8 software and IC₅₀ values calculated using a sigmoidal dose response (variable slope) fit in GraphPad Prism 5. Potency was evaluated in both cell-based and ELISA formats.
# if measured IC50 < 0.07 nM: class 1  # else: class 0

1. CL-33706-IgG (antibody, V domains shown) VH: EVTLRESGPALVKPTQTLTLTCTFSGFSLSTYGMGVGWIRQPPGKALEWLANIWWDDDKYYNPSLKNRLTISKDTSKNQVVLTMTNMDPVDTATYYCARIETMGPKYSFDYWGQGTMVTVSS VL: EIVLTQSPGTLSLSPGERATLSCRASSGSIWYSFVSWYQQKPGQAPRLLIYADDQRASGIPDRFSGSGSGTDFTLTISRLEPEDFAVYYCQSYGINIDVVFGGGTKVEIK : class 0
2. CL-33737-IgG (antibody, V domains shown) VH: EVTLRESGPALVKPTQTLTLTCTFSGFSLSTYGMGVGWIRKPPGKALEWLANIWWDDDKYYNPSLKNRLTISKDTSKNQVVLTMTNMDPVDTATYYCARIESSGPKYSFDYWGQGTMVTVSS VL: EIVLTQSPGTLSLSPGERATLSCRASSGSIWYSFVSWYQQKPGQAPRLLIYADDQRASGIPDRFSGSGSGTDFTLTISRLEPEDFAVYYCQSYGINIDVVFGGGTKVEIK : class 0
3. CL-33683-IgG (antibody, V domains shown) VH: EVTLRESGPALVKPTQTLTLTCTFSGFSLSTYGMGVGWIRQPPGKALEWLANIWWDDDKYYNPSLKNRLTISKDTSKNQVVLTMTNMDPVDTATYYCARIETIGPKYSFDYWGQGTMVTVSS VL: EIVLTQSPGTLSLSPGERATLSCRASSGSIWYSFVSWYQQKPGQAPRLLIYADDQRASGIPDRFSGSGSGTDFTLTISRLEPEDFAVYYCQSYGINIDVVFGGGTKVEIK : class 0

Then there is this binder:
Prompt: Say whether its IC50 is strictly beneath 0.07 nM. Entry: CL-33701-IgG (antibody, V domains shown) VH: EVTLRESGPALVKPTQTLTLTCTFSGFSLSTYGMGVGWIRQPPGKALEWLANIWWDDDKYYNPSLKNRLTISKDTSKNQVVLTMTNMDPVDTATYYCARIESLGTSYSFDYWGQGTMVTVSS VL: EIVLTQSPGTLSLSPGERATLSCERSSGDIWDYYVSWYQQKPGQAPRLVIYADDQRPSGIPDRFSGSGSGTDFTLTISRLEPEDFAVYYCQSYDLFIDVTFGGGTKVEIK
Response: class 1
